What LDH Increase - Index Value was measured for each of the following?
System: Hepatotoxicity; note: reference of the scale not given here
Test: FDA HLAED, lactate dehydrogenase (LDH) increase
Conditions: human

Req: Consider the molecule shown here: C[C@@H]1C[C@H]2[C@@H]3CCC4=CC(=O)C=C[C@]4(C)[C@@]3(Cl)[C@@H](O)C[C@]2(C)[C@@]1(O)C(=O)CCl [MOMETASONE] What is its recorded LDH Increase - Index Value?
Resp: 0

Req: Ok, now CC(C(=O)O)c1ccc(C(=O)c2cccs2)cc1 (configuration not stated) [SUPROFEN]
Resp: 0

Req: Repeat with Cc1ccc(C(=O)Oc2ccc(C(O)CNC(C)(C)C)cc2OC(=O)c2ccc(C)cc2)cc1 (configuration not stated) [BITOLTEROL]
Resp: 0

Req: Next molecule up: Clc1ccccc1CN1CCc2sccc2C1 [TICLOPIDINE]
Resp: 0

Req: Lookup CCOC(=O)C1=C(C)NC(C)=C(C(=O)OC)C1c1cccc(Cl)c1Cl (configuration not stated) [FELODIPINE]
Resp: 0.3

Req: Would you kindly repeat that for O=C(O)c1cn(C2CC2)c2cc(N3CCNCC3)c(F)cc2c1=O [CIPROFLOXACIN] ?
Resp: 0.9

Req: How about CCC1=C[C@@H]2CN(C1)Cc1c([nH]c3ccccc13)[C@@](C(=O)OC)(c1cc3c(cc1OC)N(C)[C@H]1[C@@](O)(C(=O)OC)[C@H](OC(C)=O)[C@]4(CC)C=CCN5CC[C@]31[C@@H]54)C2 [VINORELBINE] ?
Resp: 4.7
